Each entry below carries its recorded pKd.
System: (NPNA)3 (Plasmodium falciparum)
Test Method Notes: SPR, antibody on chip
pKd: −log10 of the molar value.
Measure: pKd

>>> observed_measurement("AB-007067 (antibody, V domains shown) VH: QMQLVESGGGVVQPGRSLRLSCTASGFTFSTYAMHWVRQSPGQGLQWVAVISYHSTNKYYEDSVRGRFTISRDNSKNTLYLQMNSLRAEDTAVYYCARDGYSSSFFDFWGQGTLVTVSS VL: DIQMTQSPSTLSASVGDRVAITCRASQSISRWLAWYQQQPGKAPKLLMSSASVLESGVPSRFSGSGSGTEFTLTISSLQPDDFATYYCQHYNSYFVTFGQGTKVEIK")
6.68
>>> observed_measurement("AB-007046 (antibody, V domains shown) VH: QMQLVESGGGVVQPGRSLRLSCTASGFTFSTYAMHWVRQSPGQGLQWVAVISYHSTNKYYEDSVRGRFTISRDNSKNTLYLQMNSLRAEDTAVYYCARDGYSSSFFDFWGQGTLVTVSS VL: DIQMTQSPSTLSASVGDRVAITCRASQSISRWLAWYQQQPGKAPKLLMSGASVLESGVPSRFSGSGSGTEFTLTISSLQPDDFATYYCQHYYSYFVTFGQGTKVEIK")
7.99
>>> observed_measurement("AB-007047 (antibody, V domains shown) VH: QMQLVESGGGVVQPGRSLRLSCTASGFTFSNYAMHWVRQSPGQGLQWVAVISYHSTNKYYEDSVRGRFTISRDNSKNTLYLQMNSLRAEDTAVYYCARDGYSSSFFDFWGQGTLVTVSS VL: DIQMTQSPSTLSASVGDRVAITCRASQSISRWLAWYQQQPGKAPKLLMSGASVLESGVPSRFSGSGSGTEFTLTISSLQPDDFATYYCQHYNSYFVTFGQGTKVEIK")
7.94
>>> observed_measurement("AB-007062 (antibody, V domains shown) VH: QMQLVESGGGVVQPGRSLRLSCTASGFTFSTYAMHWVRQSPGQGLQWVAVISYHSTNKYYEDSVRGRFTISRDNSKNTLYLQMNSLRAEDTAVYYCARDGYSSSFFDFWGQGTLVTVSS VL: DIQMTQSPSTLSASVGDRVAITCRASQSISSWLAWYQQQPGKAPKLLMSGASVLESGVPSRFSGSGSGTEFTLTISSLQPDDFATYYCQHYNSYFVTFGQGTKVEIK")
8.00
>>> observed_measurement("AB-007056 (antibody, V domains shown) VH: QMQLVESGGGVVQPGRSLRLSCTASGFTFSTYAMHWVRQSPGQGLQWVAVISYHSTNKYYEDSVRGRFTISRDNSKNTLYLQMNSLRAEDTAVYYCARDGYQSSFFDFWGQGTLVTVSS VL: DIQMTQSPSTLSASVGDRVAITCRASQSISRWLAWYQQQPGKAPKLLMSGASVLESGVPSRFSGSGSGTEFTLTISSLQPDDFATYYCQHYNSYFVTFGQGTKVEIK")
7.21
>>> observed_measurement("AB-007060 (antibody, V domains shown) VH: QMQLVESGGGVVQPGRSLRLSCTASGFTFSTYAMHWVRQSPGQGLQWVAVISYHSTNKYYEDSVRGRFTISRDNSKNTLYLQMNSLRAEDTAVYYCARDGYSSSYFDFWGQGTLVTVSS VL: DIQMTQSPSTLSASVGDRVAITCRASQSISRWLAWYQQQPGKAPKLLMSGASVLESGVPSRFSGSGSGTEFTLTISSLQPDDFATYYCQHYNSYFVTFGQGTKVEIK")
6.67
>>> observed_measurement("AB-007037 (antibody, V domains shown) VH: QMQLVESGGGVVQPGRSLRLSCTASGFTFSTYAMHWVRQSPGQGLQWVAVISYHSTNKYYEDSVKGRFTISRDNSKNTLYLQMNSLRAEDTAVYYCARDGYSSSFFDFWGQGTLVTVSS VL: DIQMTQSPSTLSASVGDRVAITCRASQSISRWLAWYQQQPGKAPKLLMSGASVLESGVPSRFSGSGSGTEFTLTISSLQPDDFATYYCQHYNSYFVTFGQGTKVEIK")
8.15
>>> observed_measurement("AB-007045 (antibody, V domains shown) VH: QMQLVESGGGVVQPGRSLRLSCTASGFTFSTYAMHWVRQSPGQGLQWVAVISYHSTNKYYEDSVRGRFTISRDNSKNTLYLQMNSLRAEDTAVYYCARDAYSSSFFDFWGQGTLVTVSS VL: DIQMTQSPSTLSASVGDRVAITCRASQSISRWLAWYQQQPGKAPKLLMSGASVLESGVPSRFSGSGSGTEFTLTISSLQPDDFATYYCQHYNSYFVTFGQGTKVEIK")
6.61
>>> observed_measurement("AB-007054 (antibody, V domains shown) VH: QMQLVESGGGVVQPGRSLRLSCTASGFTFSTYAMHWVRQSPGQGLQWVAVISYHSTNKYYEDSVRGRFTISRDNSKNTLYLQMNSLRAEDTAVYYCARDGYASSFFDFWGQGTLVTVSS VL: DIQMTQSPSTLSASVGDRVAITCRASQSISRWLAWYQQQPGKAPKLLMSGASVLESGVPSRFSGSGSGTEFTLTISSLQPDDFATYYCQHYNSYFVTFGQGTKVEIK")
7.98
>>> observed_measurement("AB-007049 (antibody, V domains shown) VH: QMQLVESGGGVVQPGRSLRLSCTASGFTFSTYAMHWVRQSPGQGLQWVAVISNHETNKYYEDSVRGRFTISRDNSKNTLYLQMNSLRAEDTAVYYCARDGYSSSFFDFWGQGTLVTVSS VL: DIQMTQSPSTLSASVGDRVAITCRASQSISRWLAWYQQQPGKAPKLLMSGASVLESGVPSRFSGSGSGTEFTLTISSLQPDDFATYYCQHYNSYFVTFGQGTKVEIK")
7.59
